# MEASUREMENT_TARGET: human DLL4, full length, on cells (human, UniProt Q9NR61 27-685)
# Sequence (Q9NR61 27-685 limits assumed): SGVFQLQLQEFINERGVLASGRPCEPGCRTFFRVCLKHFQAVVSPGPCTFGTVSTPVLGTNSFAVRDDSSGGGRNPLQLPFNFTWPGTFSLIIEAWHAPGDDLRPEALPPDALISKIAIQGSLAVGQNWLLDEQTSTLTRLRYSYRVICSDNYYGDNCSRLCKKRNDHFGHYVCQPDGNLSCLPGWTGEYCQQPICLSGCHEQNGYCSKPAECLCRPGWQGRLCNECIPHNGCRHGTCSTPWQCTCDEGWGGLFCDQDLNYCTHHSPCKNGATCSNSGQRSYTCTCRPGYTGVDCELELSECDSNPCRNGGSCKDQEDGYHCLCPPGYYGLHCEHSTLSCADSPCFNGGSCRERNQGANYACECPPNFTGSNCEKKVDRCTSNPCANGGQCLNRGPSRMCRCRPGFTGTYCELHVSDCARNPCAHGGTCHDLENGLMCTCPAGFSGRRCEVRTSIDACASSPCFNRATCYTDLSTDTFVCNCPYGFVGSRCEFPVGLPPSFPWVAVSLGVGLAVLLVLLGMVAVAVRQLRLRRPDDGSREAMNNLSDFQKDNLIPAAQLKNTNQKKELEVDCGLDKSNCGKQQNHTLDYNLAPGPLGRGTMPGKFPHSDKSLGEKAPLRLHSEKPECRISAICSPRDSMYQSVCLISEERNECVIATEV
# PROCEDURE_SUMMARY: cell-based or functional assay
Consider the following binders; for each one, report its Reporter Assay (EC50, nM).
Answers are plain numbers, in nM.

# BINDER, UNIT_ABBREVIATION, Reporter Assay (EC50, nM)
measured = [
    ("h1A11.14 (antibody, V domains shown, humanized IgG; also called VH.2a/VL.1a 1A11) VH: EVQLVESGGGLVQPGGSLRLSCAASGFTFSNFPMAWVRQAPGKGLEWVATISSSDGTTYYRDSVKGRFTISRDNSKSTLYLQMNSLRAEDTAVYYCSRGYYNSPFAYWGQGTLVTVSS VL: DIQMTQSPSSLSASVGDRVTITCRASEDIYSNLAWYQQKPGKSPKLLIFDTNNLADGVPSRFSGSGSGTDSTLTISSLQPEDFATYFCQQYNNYPPTFGQGTKLEIKR", "nM", 4.1),
]

Would you mind giving Reporter Assay (EC50, nM) for every binder in the list below?
1. h1A11.5 (antibody, V domains shown, humanized IgG; also called VH.1a/VL.1 1A11) VH: EVQLVESGGGLVQPGGSLRLSCAASGFTFSNFPMAWVRQAPGKGLEWVATISSSDGTTYYRDSVKGRFTISRDNAKSSLYLQMNSLRAEDTAVYYCSRGYYNSPFAYWGQGTLVTVSS VL: DIQMTQSPSSLSASVGDRVTITCRASEDIYSNLAWYQQKPGKAPKLLIYDTNNLADGVPSRFSGSGSGTDFTLTISSLQPEDFATYYCQQYNNYPPTFGQGTKLEIKR
2. h1A11.11 (antibody, V domains shown, humanized IgG; also called VH.1b/VL.1b 1A11) VH: EVQLVESGGGLVQPGGSLRLSCAASGFTFSNFPMAWVRQAPGKGLEWVATISSSDGTTYYRDSVKGRFTISRDNAKNSLYLQMNSLRAEDTAVYYCSRGYYNSPFAYWGQGTLVTVSS VL: DIQMTQSPSSLSASVGDRVTITCRASEDIYSNLAWYQQKPGKAPKLLIFDTNNLADGVPSRFSGSGSGTDFTLTISSLQPEDFATYYCQQYNNYPPTFGQGTKLEIKR
3. h1A11.8 (antibody, V domains shown, humanized IgG; also called VH.1a/VL.2a 1A11) VH: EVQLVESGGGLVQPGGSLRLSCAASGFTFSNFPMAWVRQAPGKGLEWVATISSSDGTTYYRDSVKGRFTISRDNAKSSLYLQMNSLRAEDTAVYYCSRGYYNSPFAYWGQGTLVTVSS VL: EIVMTQSPATLSVSPGERATLSCRASEDIYSNLAWYQQKPGQSPRLLIFDTNNLADGVPARFSGSGSGTESTLTISSLQSEDFAVYFCQQYNNYPPTFGQGTKLEIKR
4. h1A11.7 (antibody, V domains shown, humanized IgG; also called VH.1a/VL.1b 1A11) VH: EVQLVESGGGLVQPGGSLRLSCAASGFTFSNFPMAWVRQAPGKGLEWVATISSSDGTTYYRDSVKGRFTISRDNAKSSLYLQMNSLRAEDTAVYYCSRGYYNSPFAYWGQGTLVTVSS VL: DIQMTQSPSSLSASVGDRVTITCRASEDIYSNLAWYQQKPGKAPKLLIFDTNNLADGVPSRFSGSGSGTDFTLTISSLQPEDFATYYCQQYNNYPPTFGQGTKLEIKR

Result:
3.8
3.73
4.24
4.84
